# System: SK-MEL-5 melanoma
# Measurement Description: NCI-60 one-dose screen, 48 h
# Run Parameters: 10 µM unless noted
This is part of a sample that, as a whole, favours compounds with a hit. Of some 83,000 tested, about 20% had one in any assay. The source made the active and inactive calls. Rule for the calls: active = growth percent below 10; inactive = the rest.
Possible outcomes: true (1) (active), false (0) (inactive)

>  <Compound>
COCCOCCOCCOCCOc1ccc2c(c1)C(=O)c1nc3ncccc3c(=O)n1-2

>  <Qualitative Label>
true (1)

$$$$
>  <Compound>
O=c1sc2ncnc3ncn1c32

>  <Qualitative Label>
false (0)

$$$$
>  <Compound>
CC(=O)Nc1cc(C(c2ccccc2)c2ccccc2)cc(C(c2ccccc2)c2ccccc2)c1C

>  <Qualitative Label>
false (0)

$$$$
>  <Compound>
Nc1ccc2c(c1)Cc1cc(Cl)c(Cl)cc1-2

>  <Qualitative Label>
false (0)

$$$$
>  <Compound>
CCc1ccc(-c2nc(SCC(=O)NC3CCCCC3)n[nH]2)cc1

>  <Qualitative Label>
false (0)

$$$$
>  <Compound>
CCOC(=O)CCC(=O)O[C@H]1[C@H](O[C@@H]2[C@@H](C)[C@H](O[C@H]3C[C@@](C)(OC)[C@@H](O)[C@H](C)O3)[C@@H](C)C(=O)O[C@H](CC)[C@@](C)(O)[C@H](O)[C@@H](C)C(=O)[C@H](C)C[C@@]2(C)O)O[C@H](C)C[C@@H]1N(C)C

>  <Qualitative Label>
false (0)

$$$$
>  <Compound>
CN1C(=O)C(C2=NN(C=O)C(c3ccc(F)cc3)C2)C(=O)N(C)C1=O (stereo not drawn)

>  <Qualitative Label>
false (0)

$$$$
>  <Compound>
COc1cc2c(cc1OC)C(CC1(O)CCCCC1)N(S(=O)(=O)c1ccc(C)cc1)CC2 (stereo not drawn)

>  <Qualitative Label>
false (0)

$$$$
>  <Compound>
COc1ccc2[nH]c(=O)c(CNc3ccc(Nc4nccc(-c5ccc(Cl)cc5)n4)cc3)cc2c1

>  <Qualitative Label>
false (0)

$$$$
>  <Compound>
CO[C@H]1/C=C/O[C@@]2(C)Oc3c(C)c(O)c4c(O)c(c(/C=N/N5C(C)CN(Cc6ccc(C#N)cc6)CC5C)c(O)c4c3C2=O)NC(=O)/C(C)=C\C=C\[C@H](C)[C@H](O)[C@@H](C)[C@@H](O)[C@@H](C)[C@H](OC(C)=O)[C@@H]1C (stereo partly drawn)

>  <Qualitative Label>
true (1)

$$$$
>  <Compound>
CSc1nc(-c2ccc(O)cc2O)c2c(=O)[nH]c(Nc3ccc(S(=O)(=O)Nc4nc(C)cc(C)n4)cc3)nc2n1

>  <Qualitative Label>
false (0)

$$$$
>  <Compound>
Cc1[nH]c(=O)[nH]c(=O)c1CCSSCCc1c(C)[nH]c(=O)[nH]c1=O

>  <Qualitative Label>
false (0)

$$$$
>  <Compound>
O=CNc1ccc2c(c1)Cc1cc([N+](=O)[O-])ccc1-2

>  <Qualitative Label>
false (0)

$$$$
>  <Compound>
NC(=O)NS(=O)(=O)c1ccc(N2N=C(C(F)(F)F)CC2c2cc(C(F)(F)F)cc(C(F)(F)F)c2)cc1 (stereo not drawn)

>  <Qualitative Label>
false (0)

$$$$
>  <Compound>
COc1ccc(C2=NN(C=O)C(c3cccc(Nc4ccnc5cc(Cl)ccc45)c3)C2)cc1 (stereo not drawn)

>  <Qualitative Label>
true (1)

$$$$
>  <Compound>
O=C(Nc1nc(-c2ccc(Cl)cc2)cs1)c1cc(-c2ccc(Br)cc2)nc2ccc(Cl)cc12

>  <Qualitative Label>
false (0)

$$$$
>  <Compound>
O=C1C=CC(=O)N1c1ccccn1

>  <Qualitative Label>
false (0)

$$$$
>  <Compound>
COc1ccc2c(=O)c(OC)c(-c3cc(OC)c(OC)c(OC)c3)oc2c1

>  <Qualitative Label>
false (0)

$$$$
>  <Compound>
Nc1nc(SCc2cccnc2)c2ncn(C3OC(CO)C(O)C3O)c2n1 (stereo not drawn)

>  <Qualitative Label>
false (0)

$$$$
>  <Compound>
CCCCNCCCN(CCCC)CCCNCCCC

>  <Qualitative Label>
false (0)

$$$$
>  <Compound>
Cc1ccc2c(c1)C(=O)/C(=C\Nc1ccc(C(N)=O)cc1)C(O)O2 (stereo not drawn)

>  <Qualitative Label>
false (0)

$$$$
>  <Compound>
O=C1C=CC(=O)N1c1ccccc1N1C(=O)C=CC1=O

>  <Qualitative Label>
false (0)

$$$$
>  <Compound>
Cc1onc(-c2ccccc2Cl)c1C(=O)N[C@@H]1C(=O)N2[C@@H]1SC(C)(C)[C@@H]2C(=O)O

>  <Qualitative Label>
false (0)

$$$$
>  <Compound>
O=C(CSc1ncc(-c2ccccc2)n1-c1ccccc1)Nc1ccc(-c2nc3ccccc3s2)cc1

>  <Qualitative Label>
false (0)

$$$$
>  <Compound>
O=C1/C(=C\c2coc3ccccc3c2=O)c2ccccc2N1c1c(Cl)cccc1Cl

>  <Qualitative Label>
false (0)

$$$$
>  <Compound>
COc1cccc(/C=C2\Cc3ccccc3C2=O)c1

>  <Qualitative Label>
false (0)

$$$$
>  <Compound>
O=[N+]([O-])c1ccc(N=Nc2c(Cl)cc(O)cc2Cl)cc1

>  <Qualitative Label>
true (1)

$$$$
>  <Compound>
[N-]=[N+]=NCc1cccc(/C(O)=C/C(=O)C(=O)O)c1

>  <Qualitative Label>
false (0)

$$$$
>  <Compound>
COc1cccc(N2CCN(c3cccc(C)n3)CC2)c1

>  <Qualitative Label>
false (0)

$$$$
>  <Compound>
O=C(NN1C(=O)c2cc(C(=O)O)c(C(=O)O)cc2C1=O)c1ccncc1

>  <Qualitative Label>
false (0)

$$$$
>  <Compound>
CC(C)=CCNc1ncnc2c1ncn2C1OC(COP(=O)(O)O)C(O)C1O (stereo not drawn)

>  <Qualitative Label>
false (0)

$$$$
>  <Compound>
c1ccc(COc2ccc(Nc3ncnc4c3cnn4-c3ccccc3)cc2)cc1

>  <Qualitative Label>
false (0)

$$$$
>  <Compound>
O=C(O)CCC(=O)OC[C@@H](NC(=O)C(Cl)Cl)[C@H](O)c1ccc([N+](=O)[O-])cc1

>  <Qualitative Label>
false (0)

$$$$
>  <Compound>
N#Cc1c(-c2ccccc2)cc(-c2ccccc2)n(CCC(=O)O)c1=O

>  <Qualitative Label>
true (1)

$$$$
>  <Compound>
CCOC(=O)OCC(=O)[C@@]1(O)CC[C@H]2[C@@H]3CCC4=CC(=O)CC[C@]4(C)[C@H]3[C@@H](O)C[C@@]21C

>  <Qualitative Label>
false (0)

$$$$
>  <Compound>
COc1ccc(N2CCN(CC(=O)N3CCN(c4nnc(-c5ccccc5)c(-c5ccccc5)n4)CC3)CC2)cc1

>  <Qualitative Label>
false (0)

$$$$
>  <Compound>
CCOC(=O)C(C(=O)OCC)C1CCCCC1

>  <Qualitative Label>
false (0)

$$$$
>  <Compound>
Cc1cc(=O)[nH]c(/C(=N/Nc2ccccc2)C(=O)c2ccc(Cl)cc2)n1

>  <Qualitative Label>
false (0)

$$$$
